# METHOD: Drug excretion in castrated pig urine assessed as fraction of the dose excreted at 0.2 mg/kg, iv measured during 6 hrs sampling by UPLC-tandem mass spectrometry
# Type: ADME, organism-based, Sus scrofa
# Design: dose 0.2 mg/kg, route intravenous
# CONDITION_DETAILS: male, read-out: Drug excretion
VALUE_KIND: dose excreted at 6 h (%)

{"columns": ["MOLECULE", "VALUE_KIND", "REPORTED_VALUE"],
 "data": [
  ["CC(C)(C)NC(=O)[C@H]1CC[C@H]2[C@@H]3CC[C@H]4NC(=O)C=C[C@]4(C)[C@H]3CC[C@]12C [FINASTERIDE]", "dose excreted at 6 h", 0.12]
]}

###

# METHOD: Ratio of AUC in bile to plasma withdrawn from portal vein in castrated pig at 0.8 mg/kg administered as intrajejunal dose by UPLC-tandem mass spectrometry
# Assay type: ADME, organism-based, Sus scrofa
# Set-up: dose 0.8 mg/kg
# CONDITION_DETAILS: male, read-out: Ratio AUC

{"columns": ["COMPOUND", "Kp"],
 "data": [
  ["CC(C)(C)NC(=O)[C@H]1CC[C@H]2[C@@H]3CC[C@H]4NC(=O)C=C[C@]4(C)[C@H]3CC[C@]12C [FINASTERIDE]", 0.9]
]}

###

# METHOD: AUC (0 to 6 hrs) in castrated pig plasma withdrawn from femoral vein at 0.8 mg/kg administered as intrajejunal dose by UPLC-tandem mass spectrometry
# Type: ADME, organism-based, Sus scrofa
# Parameters: time < 6 hr, dose 0.8 mg/kg
# CONDITION_DETAILS: male

{"columns": ["MOLECULE", "AUC(0-t) at 6 h (µM·h)"],
 "data": [
  ["CC(C)(C)NC(=O)[C@H]1CC[C@H]2[C@@H]3CC[C@H]4NC(=O)C=C[C@]4(C)[C@H]3CC[C@]12C [FINASTERIDE]", 1.7]
]}

###

# METHOD: Cmax in castrated pig plasma withdrawn from portal vein at 10 mg/kg dosed via intrajejunal route by HPLC-UV
# CONDITION_DETAILS: male
VALUE_KIND: Cmax (µM)

{"columns": ["COMPOUND", "VALUE_KIND", "READOUT_UNIT", "REPORTED_VALUE"],
 "data": [
  ["CC(=O)N1CCN(c2ccc(OCC3COC(Cn4ccnc4)(c4ccc(Cl)cc4Cl)O3)cc2)CC1 (stereo unspecified) [KETOCONAZOLE]", "Cmax", "µM", 9]
]}

###

# METHOD: Total plasma clearance in castrated pig at 0.2 mg/kg, iv by UPLC-tandem mass spectrometry
# Type: ADME, organism-based, Sus scrofa
# Design: dose 0.2 mg/kg, route intravenous
# CONDITION_DETAILS: male
VALUE_KIND: clearance (mL/min/kg)

{"columns": ["COMPOUND", "VALUE_KIND", "REPORTED_VALUE"],
 "data": [
  ["CC(C)(C)NC(=O)[C@H]1CC[C@H]2[C@@H]3CC[C@H]4NC(=O)C=C[C@]4(C)[C@H]3CC[C@]12C [FINASTERIDE]", "clearance", 7]
]}

###

# METHOD: Fraction unbound in pig plasma
# Type: ADME, cell-free, Sus scrofa

{"columns": ["COMPOUND", "fraction unbound"],
 "data": [
  ["CC(C)(C)NC(=O)[C@H]1CC[C@H]2[C@@H]3CC[C@H]4NC(=O)C=C[C@]4(C)[C@H]3CC[C@]12C [FINASTERIDE]", 0.17]
]}

###

# METHOD: AUC (0 to 6 hrs) in castrated pig plasma withdrawn from hepatic vein at 0.2 mg/kg, iv by UPLC-tandem mass spectrometry
# Assay type: ADME, organism-based, Sus scrofa
# Design: time < 6 hr, dose 0.2 mg/kg, route intravenous
# CONDITION_DETAILS: male

{"columns": ["COMPOUND", "AUC(0-t) at 6 h / µM·h"],
 "data": [
  ["CC(C)(C)NC(=O)[C@H]1CC[C@H]2[C@@H]3CC[C@H]4NC(=O)C=C[C@]4(C)[C@H]3CC[C@]12C [FINASTERIDE]", 0.9]
]}

###

# METHOD: AUC (0 to 6 hrs) in castrated pig plasma withdrawn from hepatic vein at 0.8 mg/kg administered as intrajejunal dose by UPLC-tandem mass spectrometry
# Assay type: ADME, organism-based, Sus scrofa
# Design: time < 6 hr, dose 0.8 mg/kg
# CONDITION_DETAILS: male
VALUE_KIND: AUC(0-t) at 6 h (µM·h)

{"columns": ["COMPOUND", "VALUE_KIND", "REPORTED_VALUE"],
 "data": [
  ["CC(C)(C)NC(=O)[C@H]1CC[C@H]2[C@@H]3CC[C@H]4NC(=O)C=C[C@]4(C)[C@H]3CC[C@]12C [FINASTERIDE]", "AUC(0-t) at 6 h", 1.6]
]}

###

# METHOD: Cmax in castrated pig bile at 0.8 mg/kg administered as intrajejunal dose 20 mins after ketoconazole administration by UPLC-tandem mass spectrometry
# Format: ADME, organism-based, Sus scrofa
# Parameters: dose 0.8 mg/kg
# CONDITION_DETAILS: male

{"columns": ["COMPOUND", "Cmax, nM"],
 "data": [
  ["CC(C)(C)NC(=O)[C@H]1CC[C@H]2[C@@H]3CC[C@H]4NC(=O)C=C[C@]4(C)[C@H]3CC[C@]12C [FINASTERIDE]", 2000]
]}

###

# METHOD: Ratio of AUC in bile to plasma withdrawn from hepatic vein in castrated pig at 0.2 mg/kg, iv by UPLC-tandem mass spectrometry
# Type: ADME, organism-based, Sus scrofa
# Set-up: dose 0.2 mg/kg, route intravenous
# CONDITION_DETAILS: male, read-out: Ratio AUC
VALUE_KIND: Kp

{"columns": ["COMPOUND", "REPORTED_VALUE"],
 "data": [
  ["CC(C)(C)NC(=O)[C@H]1CC[C@H]2[C@@H]3CC[C@H]4NC(=O)C=C[C@]4(C)[C@H]3CC[C@]12C [FINASTERIDE]", 7]
]}

###

# METHOD: AUC (0 to 6 hrs) in castrated pig plasma withdrawn from portal vein dosed via intrajejunal route by UPLC-tandem mass spectrometry
# CONDITION_DETAILS: male
VALUE_KIND: AUC(0-t) at 6 h (µM·h)

{"columns": ["COMPOUND", "VALUE_KIND", "REPORTED_VALUE"],
 "data": [
  ["CC(=O)N1CCN(c2ccc(OCC3COC(Cn4ccnc4)(c4ccc(Cl)cc4Cl)O3)cc2)CC1 (stereo unspecified)", "AUC(0-t) at 6 h", 22]
]}

###

# METHOD: AUC (0 to 6 hrs) in castrated pig bile at 0.2 mg/kg, iv by UPLC-tandem mass spectrometry
# Type: ADME, organism-based, Sus scrofa
# Set-up: time < 6 hr, dose 0.2 mg/kg, route intravenous
# CONDITION_DETAILS: male

{"columns": ["COMPOUND", "AUC(0-t) at 6 h, µM·h"],
 "data": [
  ["CC(C)(C)NC(=O)[C@H]1CC[C@H]2[C@@H]3CC[C@H]4NC(=O)C=C[C@]4(C)[C@H]3CC[C@]12C [FINASTERIDE]", 1.1]
]}

###

# METHOD: Volume of distribution at steady state in castrated pig at 0.2 mg/kg, iv by UPLC-tandem mass spectrometry
# Assay type: ADME, organism-based, Sus scrofa
# Parameters: dose 0.2 mg/kg, route intravenous
# CONDITION_DETAILS: male, in vivo, read-out: Vdss

{"columns": ["MOLECULE", "READOUT_UNIT", "Vd"],
 "data": [
  ["CC(C)(C)NC(=O)[C@H]1CC[C@H]2[C@@H]3CC[C@H]4NC(=O)C=C[C@]4(C)[C@H]3CC[C@]12C [FINASTERIDE]", "L/kg", 0.99]
]}

###

# METHOD: Ratio of AUC in bile to plasma withdrawn from hepatic vein in castrated pig at 0.8 mg/kg administered as intrajejunal dose by UPLC-tandem mass spectrometry
# Type: ADME, organism-based, Sus scrofa
# Set-up: dose 0.8 mg/kg
# CONDITION_DETAILS: male, read-out: Ratio AUC

{"columns": ["COMPOUND", "Kp"],
 "data": [
  ["CC(C)(C)NC(=O)[C@H]1CC[C@H]2[C@@H]3CC[C@H]4NC(=O)C=C[C@]4(C)[C@H]3CC[C@]12C [FINASTERIDE]", 14]
]}

###

# METHOD: Tmax in castrated pig plasma withdrawn from hepatic vein at 0.8 mg/kg administered as intrajejunal dose by UPLC-tandem mass spectrometry
# Format: ADME, organism-based, Sus scrofa
# Parameters: dose 0.8 mg/kg
# CONDITION_DETAILS: male

{"columns": ["COMPOUND", "READOUT_UNIT", "Tmax"],
 "data": [
  ["CC(C)(C)NC(=O)[C@H]1CC[C@H]2[C@@H]3CC[C@H]4NC(=O)C=C[C@]4(C)[C@H]3CC[C@]12C [FINASTERIDE]", "min", 30]
]}

Numbers sourced from ChEMBL document CHEMBL3525971.
